# ASSAY_SYSTEM: CRF receptor (Rattus norvegicus)
# Sequence (P35353 24-415): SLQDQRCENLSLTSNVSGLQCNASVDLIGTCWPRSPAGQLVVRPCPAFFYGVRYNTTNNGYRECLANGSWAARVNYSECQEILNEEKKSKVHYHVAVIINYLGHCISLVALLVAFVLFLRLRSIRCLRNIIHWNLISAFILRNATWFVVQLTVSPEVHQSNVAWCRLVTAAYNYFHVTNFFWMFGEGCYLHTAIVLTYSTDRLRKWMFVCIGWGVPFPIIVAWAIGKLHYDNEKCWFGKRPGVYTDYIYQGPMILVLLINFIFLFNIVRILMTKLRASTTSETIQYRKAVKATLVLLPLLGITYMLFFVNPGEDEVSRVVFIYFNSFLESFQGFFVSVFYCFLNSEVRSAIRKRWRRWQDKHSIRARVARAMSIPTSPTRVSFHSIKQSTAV
Counter-ions that a name gives are not always drawn.
So basically, if IC50 comes in under 60 nM it's yes, and if it's 60 nM or more it's no.

{"MOLECULE": "CCN(c1nc(C)cc(N2CC=C(c3cccc(C(F)(F)F)c3)CC2)n1)c1c(C)cc(C)cc1C", "ASSAY_SYSTEM": "CRF receptor (Rattus norvegicus)", "CLASS": "yes"}
{"MOLECULE": "CCN(c1nc(C)cc(N2CC=C(c3cc(F)cc(F)c3)CC2)n1)c1ccc(C(C)C)cc1SC", "ASSAY_SYSTEM": "CRF receptor (Rattus norvegicus)", "CLASS": "yes"}
{"MOLECULE": "CCN(c1nc(C)cc(N2CC=C(c3ccc(Cl)cc3)CC2)n1)c1ccc(C2CCCC2)cc1SC", "ASSAY_SYSTEM": "CRF receptor (Rattus norvegicus)", "CLASS": "no"}
{"MOLECULE": "CCN(c1nc(C)cc(N2CC=C(c3ccc(F)c(F)c3)CC2)n1)c1ccc(C(C)C)cc1SC", "ASSAY_SYSTEM": "CRF receptor (Rattus norvegicus)", "CLASS": "no"}
{"MOLECULE": "CCN(c1nc(C)cc(N2CCC=C(c3ccc(F)cc3)C2)n1)c1ccc(C(C)C)cc1Br", "ASSAY_SYSTEM": "CRF receptor (Rattus norvegicus)", "CLASS": "no"}
{"MOLECULE": "CCN(c1nc(C)cc(N2CC=C(c3cccc(Cl)c3)CC2)n1)c1ccc(N(C)C)cc1Br", "ASSAY_SYSTEM": "CRF receptor (Rattus norvegicus)", "CLASS": "yes"}
{"MOLECULE": "CCN(c1nc(C)cc(N2CC=C(c3cccc(Cl)c3)CC2)n1)c1ccc(C(C)C)cc1SC", "ASSAY_SYSTEM": "CRF receptor (Rattus norvegicus)", "CLASS": "yes"}
{"MOLECULE": "CCN(c1nc(C)cc(N2CCC=C(c3ccccc3C)C2)n1)c1ccc(C(C)C)cc1SC [Compound 2-15, hydrochloride]", "ASSAY_SYSTEM": "CRF receptor (Rattus norvegicus)", "CLASS": "yes"}
{"MOLECULE": "CCN(c1nc(C)cc(N2CC=C(c3ccc(Cl)cc3)CC2)n1)c1ccc(C(C)C)cc1SC", "ASSAY_SYSTEM": "CRF receptor (Rattus norvegicus)", "CLASS": "yes"}
{"MOLECULE": "C#CCN(c1nc(C)cc(N2CC=C(c3cccc(F)c3)CC2)n1)c1ccc(C(C)C)cc1Br", "ASSAY_SYSTEM": "CRF receptor (Rattus norvegicus)", "CLASS": "yes"}
{"MOLECULE": "CCN(c1nc(C)cc(N2CCC=C(c3ccc(F)cc3)C2)n1)c1ccc(N(C)C)cc1Br", "ASSAY_SYSTEM": "CRF receptor (Rattus norvegicus)", "CLASS": "no"}
{"MOLECULE": "CCN(c1nc(C)cc(N2CC=C(c3ccco3)CC2)n1)c1ccc(C(C)C)cc1Br", "ASSAY_SYSTEM": "CRF receptor (Rattus norvegicus)", "CLASS": "yes"}
{"MOLECULE": "CCN(c1nc(C)cc(N2CC=C(c3cccc(Cl)c3)CC2)n1)c1ccc(C(C)C)cc1Br [Compound 1-30, hydrochloride]", "ASSAY_SYSTEM": "CRF receptor (Rattus norvegicus)", "CLASS": "yes"}
{"MOLECULE": "CCN(c1nc(C)cc(N2CCC=C(c3cc(F)cc(F)c3)C2)n1)c1ccc(C(C)C)cc1SC", "ASSAY_SYSTEM": "CRF receptor (Rattus norvegicus)", "CLASS": "no"}
{"MOLECULE": "CCN(c1nc(C)cc(N2CCC=C(c3ccc(F)cc3)C2)n1)c1ccc(C(C)C)cc1SC", "ASSAY_SYSTEM": "CRF receptor (Rattus norvegicus)", "CLASS": "yes"}

# credit: patent US6187781A
